Biological target: Transcriptional activator Myb (Homo sapiens) (UniProt P10242)
Sequence (P10242 whole entry, looked up): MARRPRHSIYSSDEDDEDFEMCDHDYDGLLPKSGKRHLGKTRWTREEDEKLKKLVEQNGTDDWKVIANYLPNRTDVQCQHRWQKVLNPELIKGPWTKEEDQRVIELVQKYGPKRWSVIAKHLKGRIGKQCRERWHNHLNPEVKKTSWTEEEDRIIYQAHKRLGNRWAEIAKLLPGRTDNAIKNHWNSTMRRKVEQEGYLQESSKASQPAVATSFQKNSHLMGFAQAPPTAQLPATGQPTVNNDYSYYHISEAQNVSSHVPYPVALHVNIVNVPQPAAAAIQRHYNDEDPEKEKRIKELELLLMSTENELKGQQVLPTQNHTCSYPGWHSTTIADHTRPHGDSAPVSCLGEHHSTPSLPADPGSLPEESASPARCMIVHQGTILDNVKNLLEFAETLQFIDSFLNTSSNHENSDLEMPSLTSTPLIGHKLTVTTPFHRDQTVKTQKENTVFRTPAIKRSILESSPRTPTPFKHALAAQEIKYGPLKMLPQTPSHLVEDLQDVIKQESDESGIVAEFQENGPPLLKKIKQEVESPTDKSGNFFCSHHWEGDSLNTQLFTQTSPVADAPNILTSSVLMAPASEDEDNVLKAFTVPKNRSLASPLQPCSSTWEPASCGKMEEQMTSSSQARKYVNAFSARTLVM
Test: ATG_Myb_CIS: Attagene CIS-FACTORIAL HepG2 Assay for human Myeloblastosis (Myb) Proto-Oncogene Transcription Factor (AID 2282986)
Details: HepG2 Attagene CIS-FACTORIAL Myb reporter transcription; actives raise or lower the signal
Active and inactive are the calls of the source. How the source made its calls: active means hit-call score of the fitted dose curve at least 0.9, where 1 is the maximum; inactive means score below 0.9.
Classes used: t for active, f for inactive

1. Cc1cccc2c1ccc1ccccc12	f
2. Cc1cc(C(=C2C=CC(=Nc3ccc(S(=O)(=O)O)cc3)C=C2)c2ccc(Nc3ccc(S(=O)(=O)O)cc3)cc2)cc(S(=O)(=O)O)c1N	f
3. NS(=O)(=O)O	f
4. O=C1Cc2ccccc2N1c1c(Cl)cccc1Cl	f
5. Oc1ccc(Cc2ccccc2O)cc1	f
6. O=S(=O)(c1ccc(OCc2ccccc2)cc1)c1ccccc1O	t
7. CCOC(OCC)C(=O)c1ccccc1	f
8. O=C(Nc1cccc([N+](=O)[O-])c1)c1cc2ccccc2cc1O	f
9. CN(CCO)S(=O)(=O)C(F)(F)C(F)(F)C(F)(F)C(F)(F)C(F)(F)C(F)(F)C(F)(F)C(F)(F)F	f
10. O=C(Nc1ccc(Cl)c(Cl)c1)c1cc(Cl)cc(Cl)c1O	f
11. CCCCCCCC(OC)OC	f
12. Cc1ccc(N=Nc2c(O)ccc3ccccc23)c(C)c1	f
13. COCC1CCC(CO)CC1 (centres undefined)	f
14. O=C(O)CCC(F)(F)C(F)(F)C(F)(F)C(F)(F)C(F)(F)C(F)(F)F	f
